// provenance: ChEMBL document CHEMBL4831495

test-name: AUC (0 to t) in Wistar rat at 2 mg/kg, iv by LC-MS/MS analysis
Assay type: ADME, organism-based
Design: dose 2 mg/kg
experimental-parameters: in vivo
Documented AUC(0-t) across a set of compounds
assay-metric: AUC(0-t)

{"columns": ["compound", "result"],
 "data": [
  ["Cc1nc(Nc2ncc(C(=O)Nc3c(C)cccc3Cl)s2)cc(N2CCN(CCCCNc3cccc4c3C(=O)N(C3CCC(=O)NC3=O)C4=O)CC2)n1 (stereo not drawn)", "1330 ng·h/mL"],
  ["Cc1nc(Nc2ncc(C(=O)Nc3c(C)cccc3Cl)s2)cc(N2CCN(C(=O)CCOCCOCCNc3cccc4c3C(=O)N(C3CCC(=O)NC3=O)C4=O)CC2)n1 (stereo not drawn)", "496 ng·h/mL"],
  ["Cc1nc(Nc2ncc(C(=O)Nc3c(C)cccc3Cl)s2)cc(N2CCN(CCSc3cccc4c3C(=O)N(C3CCC(=O)NC3=O)C4=O)CC2)n1 (stereo not drawn)", "926 ng·h/mL"]
]}

###

test-name: Clearance in Wistar rat at 2 mg/kg, iv by LC-MS/MS analysis
Assay type: ADME, organism-based
experimental-parameters: in vivo
Documented clearance across a set of molecules
assay-metric: clearance (mL/min/kg)

{"columns": ["molecule", "value-units", "number"],
 "data": [
  ["Cc1nc(Nc2ncc(C(=O)Nc3c(C)cccc3Cl)s2)cc(N2CCN(CCCCNc3cccc4c3C(=O)N(C3CCC(=O)NC3=O)C4=O)CC2)n1 (stereo not drawn)", "mL/min/kg", 24.1],
  ["Cc1nc(Nc2ncc(C(=O)Nc3c(C)cccc3Cl)s2)cc(N2CCN(CCSc3cccc4c3C(=O)N(C3CCC(=O)NC3=O)C4=O)CC2)n1 (stereo not drawn)", "mL/min/kg", 35.7],
  ["Cc1nc(Nc2ncc(C(=O)Nc3c(C)cccc3Cl)s2)cc(N2CCN(C(=O)CCOCCOCCNc3cccc4c3C(=O)N(C3CCC(=O)NC3=O)C4=O)CC2)n1 (stereo not drawn)", "mL/min/kg", 67.1]
]}

###

Documented log10 DC50 across a set of compounds
test-target: Protein cereblon/Tyrosine-protein kinase ABL1/Breakpoint cluster region protein (Homo sapiens, UniProt P00519+P11274+Q96SW2)
Sequence (P00519 whole entry): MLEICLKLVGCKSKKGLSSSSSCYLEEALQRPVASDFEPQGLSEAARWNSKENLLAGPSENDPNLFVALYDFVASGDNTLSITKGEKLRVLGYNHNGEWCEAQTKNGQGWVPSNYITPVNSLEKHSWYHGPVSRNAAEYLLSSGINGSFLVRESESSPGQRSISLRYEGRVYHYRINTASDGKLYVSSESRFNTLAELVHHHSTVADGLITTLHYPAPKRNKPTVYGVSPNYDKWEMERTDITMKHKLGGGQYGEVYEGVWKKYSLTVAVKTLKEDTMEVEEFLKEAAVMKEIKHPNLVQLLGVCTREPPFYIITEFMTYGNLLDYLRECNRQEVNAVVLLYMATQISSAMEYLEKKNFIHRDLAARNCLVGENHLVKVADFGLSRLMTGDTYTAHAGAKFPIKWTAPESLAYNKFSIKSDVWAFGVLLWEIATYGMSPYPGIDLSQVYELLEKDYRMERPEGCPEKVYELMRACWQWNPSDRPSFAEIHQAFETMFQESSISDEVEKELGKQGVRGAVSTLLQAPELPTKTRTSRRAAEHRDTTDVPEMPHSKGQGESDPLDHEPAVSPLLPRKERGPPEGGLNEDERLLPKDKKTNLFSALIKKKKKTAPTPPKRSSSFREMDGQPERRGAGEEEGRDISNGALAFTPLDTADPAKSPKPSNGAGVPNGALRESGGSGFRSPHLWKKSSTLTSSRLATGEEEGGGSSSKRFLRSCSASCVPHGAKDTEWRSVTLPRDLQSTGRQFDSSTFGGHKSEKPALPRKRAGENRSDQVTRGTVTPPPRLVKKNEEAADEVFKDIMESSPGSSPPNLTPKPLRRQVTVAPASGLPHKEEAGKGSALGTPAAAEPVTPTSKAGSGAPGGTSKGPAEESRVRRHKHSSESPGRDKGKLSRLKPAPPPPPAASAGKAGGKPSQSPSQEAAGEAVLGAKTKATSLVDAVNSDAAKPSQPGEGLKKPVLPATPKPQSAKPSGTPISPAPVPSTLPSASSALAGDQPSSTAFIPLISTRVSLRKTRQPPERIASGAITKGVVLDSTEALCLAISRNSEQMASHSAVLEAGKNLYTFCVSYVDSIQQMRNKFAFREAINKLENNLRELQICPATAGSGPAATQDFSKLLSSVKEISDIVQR
Sequence (P11274 whole entry): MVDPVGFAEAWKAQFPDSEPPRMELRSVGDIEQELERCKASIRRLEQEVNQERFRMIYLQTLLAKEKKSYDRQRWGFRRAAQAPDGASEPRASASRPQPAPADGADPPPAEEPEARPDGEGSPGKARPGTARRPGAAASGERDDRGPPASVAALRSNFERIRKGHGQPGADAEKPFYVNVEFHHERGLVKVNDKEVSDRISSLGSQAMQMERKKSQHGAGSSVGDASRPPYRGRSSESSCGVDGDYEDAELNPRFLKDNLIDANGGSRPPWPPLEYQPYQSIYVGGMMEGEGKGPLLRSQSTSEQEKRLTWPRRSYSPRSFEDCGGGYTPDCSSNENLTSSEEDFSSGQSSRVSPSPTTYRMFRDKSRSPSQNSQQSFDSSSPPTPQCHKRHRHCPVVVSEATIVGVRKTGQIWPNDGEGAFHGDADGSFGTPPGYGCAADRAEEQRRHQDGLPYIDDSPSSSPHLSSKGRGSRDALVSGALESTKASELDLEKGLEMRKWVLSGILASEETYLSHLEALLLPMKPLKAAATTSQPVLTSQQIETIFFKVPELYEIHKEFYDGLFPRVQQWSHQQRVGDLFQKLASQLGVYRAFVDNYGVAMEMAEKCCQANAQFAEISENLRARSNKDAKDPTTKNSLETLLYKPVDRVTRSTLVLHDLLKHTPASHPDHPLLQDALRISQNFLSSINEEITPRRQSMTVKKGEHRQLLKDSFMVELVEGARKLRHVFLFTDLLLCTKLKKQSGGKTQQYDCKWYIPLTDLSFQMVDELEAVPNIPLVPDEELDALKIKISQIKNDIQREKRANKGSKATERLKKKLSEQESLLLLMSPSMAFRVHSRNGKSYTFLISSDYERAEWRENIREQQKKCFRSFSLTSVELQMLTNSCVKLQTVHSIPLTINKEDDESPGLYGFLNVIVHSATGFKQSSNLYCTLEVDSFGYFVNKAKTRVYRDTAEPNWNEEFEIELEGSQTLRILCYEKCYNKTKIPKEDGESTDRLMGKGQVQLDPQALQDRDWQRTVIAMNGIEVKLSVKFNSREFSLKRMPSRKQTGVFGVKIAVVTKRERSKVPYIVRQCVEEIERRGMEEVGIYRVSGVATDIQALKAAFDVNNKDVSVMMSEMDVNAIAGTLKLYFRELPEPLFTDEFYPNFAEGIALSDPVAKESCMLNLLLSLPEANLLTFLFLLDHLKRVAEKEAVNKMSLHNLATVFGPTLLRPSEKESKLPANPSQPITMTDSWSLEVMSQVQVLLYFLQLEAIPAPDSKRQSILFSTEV
Sequence (Q96SW2 whole entry): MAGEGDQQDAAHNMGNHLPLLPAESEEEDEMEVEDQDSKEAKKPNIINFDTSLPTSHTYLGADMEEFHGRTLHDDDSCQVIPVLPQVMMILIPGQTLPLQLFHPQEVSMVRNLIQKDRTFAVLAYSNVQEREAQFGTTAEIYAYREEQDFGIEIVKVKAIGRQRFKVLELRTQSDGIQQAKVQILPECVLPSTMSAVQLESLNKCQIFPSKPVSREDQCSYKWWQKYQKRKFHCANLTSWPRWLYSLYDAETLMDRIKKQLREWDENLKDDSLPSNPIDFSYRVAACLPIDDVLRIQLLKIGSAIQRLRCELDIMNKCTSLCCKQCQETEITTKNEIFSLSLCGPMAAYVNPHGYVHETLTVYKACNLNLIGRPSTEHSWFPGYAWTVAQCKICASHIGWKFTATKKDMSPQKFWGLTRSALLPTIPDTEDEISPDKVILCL
test-name: PROTAC activity at CRBN/Bcr-Abl in human K562 cells assessed as degrading activity by Western blotting analysis
Format: cell-based
assay-metric: log10 DC50 (log10 of the value in nM)

{"columns": ["compound", "assay-metric", "number"],
 "data": [
  ["Cc1nc(Nc2ncc(C(=O)Nc3c(C)cccc3Cl)s2)cc(N2CCN(C(=O)CS(=O)(=O)c3cccc4c3C(=O)N(C3CCC(=O)NC3=O)C4=O)CC2)n1 (stereo not drawn)", "log10 DC50", 2.39],
  ["Cc1nc(Nc2ncc(C(=O)Nc3c(C)cccc3Cl)s2)cc(N2CCN(C(=O)CCOCCNc3cccc4c3C(=O)N(C3CCC(=O)NC3=O)C4=O)CC2)n1 (stereo not drawn)", "log10 DC50", 0.94],
  ["Cc1nc(Nc2ncc(C(=O)Nc3c(C)cccc3Cl)s2)cc(N2CCN(C(=O)CCOCCOCCOCCOCCNc3cccc4c3C(=O)N(C3CCC(=O)NC3=O)C4=O)CC2)n1 (stereo not drawn)", "log10 DC50", 1.42],
  ["Cc1nc(Nc2ncc(C(=O)Nc3c(C)cccc3Cl)s2)cc(N2CCN(C(=O)CCCCNc3cccc4c3C(=O)N(C3CCC(=O)NC3=O)C4=O)CC2)n1 (stereo not drawn)", "log10 DC50", 1.04],
  ["Cc1nc(Nc2ncc(C(=O)Nc3c(C)cccc3Cl)s2)cc(N2CCN(C(=O)CCc3cccc4c3C(=O)N(C3CCC(=O)NC3=O)C4=O)CC2)n1 (stereo not drawn)", "log10 DC50", 1.98],
  ["Cc1nc(Nc2ncc(C(=O)Nc3c(C)cccc3Cl)s2)cc(N2CCN(CCSc3cccc4c3C(=O)N(C3CCC(=O)NC3=O)C4=O)CC2)n1 (stereo not drawn)", "log10 DC50", -0.74],
  ["Cc1nc(Nc2ncc(C(=O)Nc3c(C)cccc3Cl)s2)cc(N2CCN(CCCCC(=O)Nc3cccc4c3C(=O)N(C3CCC(=O)NC3=O)C4=O)CC2)n1 (stereo not drawn)", "log10 DC50", 1.00],
  ["Cc1nc(Nc2ncc(C(=O)Nc3c(C)cccc3Cl)s2)cc(N2CCN(C(=O)CSc3cccc4c3C(=O)N(C3CCC(=O)NC3=O)C4=O)CC2)n1 (stereo not drawn)", "log10 DC50", 0.75],
  ["Cc1nc(Nc2ncc(C(=O)Nc3c(C)cccc3Cl)s2)cc(N2CCN(C(=O)CCOCCOCCOCCOCCOCCNc3cccc4c3C(=O)N(C3CCC(=O)NC3=O)C4=O)CC2)n1 (stereo not drawn)", "log10 DC50", 1.03],
  ["Cc1nc(Nc2ncc(C(=O)Nc3c(C)cccc3Cl)s2)cc(N2CCN(CCSc3cccc4c3CN(C3CCC(=O)NC3=O)C4=O)CC2)n1 (stereo not drawn)", "log10 DC50", 0.43],
  ["Cc1nc(Nc2ncc(C(=O)Nc3c(C)cccc3Cl)s2)cc(N2CCN(C(=O)CCCCNc3cccc4c3CN(C3CCC(=O)NC3=O)C4=O)CC2)n1 (stereo not drawn)", "log10 DC50", 1.05],
  ["Cc1nc(Nc2ncc(C(=O)Nc3c(C)cccc3Cl)s2)cc(N2CCN(C(=O)CCOCCOCCNc3cccc4c3C(=O)N(C3CCC(=O)NC3=O)C4=O)CC2)n1 (stereo not drawn)", "log10 DC50", 1.24],
  ["Cc1nc(Nc2ncc(C(=O)Nc3c(C)cccc3Cl)s2)cc(N2CCN(C(=O)CCCCCCNc3cccc4c3C(=O)N(C3CCC(=O)NC3=O)C4=O)CC2)n1 (stereo not drawn)", "log10 DC50", 0.95]
]}
